Ref: the supplement of paper PMC10567573

Reported protein stability index values are given for each entry in this list.
B1: MIA2 (parent)
chain: NSISSDKEATVPCTEILTEKKDTI

- Variants of: B1
- testDetails: protein stability index of a GFP-peptide fusion (GPS, HEK-293T) (PSI 1-6); higher = more stable;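 note: lentivirally expressed fusions sorted by FACS into six bins by GFP to DsRed ratio, PSI derived from sequencing read proportions per bin multiplied by bin number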
- appliedConditions: c terminus: a fixed tail appended
// no unit, no text: just the number

mutationCode | protein stability index
A9Y | 5.05
T10Y | 4.63
D22N | 5.21
E19K | 4.93

In the following, a different variant is considered.
Bench note: what protein stability index did `P12T` show?
5.48
